- assay_overview: Phase 1 single ascending dose plasma pharmacokinetics in healthy volunteers
- Format: in vivo, human
- experimental_setup: human, po, 1200 mg, Group 3, 1200 mg single oral dose, Mean (N 6), read-out: Cmax
measurement_name: Cmax (ng/mL)
One number for each entry, in ng/mL.

[ask] May I ask what Cmax has been recorded for CC(=O)c1nn(CC(=O)N2C[C@H](F)C[C@H]2C(=O)Nc2cccc(Br)n2)c2ccc(-c3cnc(C)nc3)cc12 [Compound 1] ?
[reply] 3070

====

- assay_overview: Ocular tissue distribution and pharmacokinetics, 7.5 and 15 mg/kg oral, pigmented Dutch Belted rabbits (Example 7)
- Type: in vivo
- experimental_setup: Dutch Belted, rabbit, plasma, oral, 15 mg/kg, DB rabbits, Day 15, 15 mg/kg BID, 12 hr; read-out: Mean Plasma Concentration
measurement_name: concentration at 12 h (µg/mL)
Answers are plain numbers, in µg/mL.

[ask] Value lookup for concentration at 12 h; key = "CC(=O)c1nn(CC(=O)N2C[C@H](F)C[C@H]2C(=O)Nc2cccc(Br)n2)c2ccc(-c3cnc(C)nc3)cc12"
[reply] 0.0543
